These entries and their values trace back to paper PMC3156385.

# measurement-target: P450 1B1 (Homo sapiens, UniProt Q16678)
# Sequence (Q16678 whole entry): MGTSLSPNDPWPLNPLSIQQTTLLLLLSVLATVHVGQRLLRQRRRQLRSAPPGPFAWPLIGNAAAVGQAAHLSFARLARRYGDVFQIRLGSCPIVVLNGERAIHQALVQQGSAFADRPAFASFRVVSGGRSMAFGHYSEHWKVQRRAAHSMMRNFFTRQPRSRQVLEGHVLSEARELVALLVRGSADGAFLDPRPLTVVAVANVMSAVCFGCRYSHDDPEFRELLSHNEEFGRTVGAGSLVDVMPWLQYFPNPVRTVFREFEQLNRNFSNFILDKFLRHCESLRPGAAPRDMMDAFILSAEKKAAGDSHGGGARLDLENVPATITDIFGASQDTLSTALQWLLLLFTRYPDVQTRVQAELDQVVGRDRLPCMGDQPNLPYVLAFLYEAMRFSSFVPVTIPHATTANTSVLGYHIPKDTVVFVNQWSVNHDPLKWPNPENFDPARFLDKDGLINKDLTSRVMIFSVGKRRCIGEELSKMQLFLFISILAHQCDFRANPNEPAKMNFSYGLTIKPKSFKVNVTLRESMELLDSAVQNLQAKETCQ
# measurement-description: Spectral binding titration with purified recombinant P450 1B1
List of pKd values.
Friendly reminder that pKd comes from taking -log10 of the concentration in mol/L.

Recorded pKd (compound N#C[Se]Cc1ccccc1C[Se]C#N [o-XSC, 1,2-phenylenebis(methylene)selenocyanate] ): 5.34

More entries:
Recorded pKd (compound N#C[Se]Cc1cccc(C[Se]C#N)c1 [m-XSC, 1,3-phenylenebis(methylene)selenocyanate] ): 5.24

Recorded pKd (compound N#C[Se]Cc1ccccc1 [BSC, benzyl selenocyanate] ): 5.28

Recorded pKd (compound N#C[Se]Cc1ccc(C[Se]C#N)cc1 [p-XSC, 1,4-phenylenebis(methylene)selenocyanate] ): 5.44

----------
List of pKd values.
# measurement-target: P450 2A13 (Homo sapiens, UniProt Q16696)
# Sequence (Q16696 whole entry): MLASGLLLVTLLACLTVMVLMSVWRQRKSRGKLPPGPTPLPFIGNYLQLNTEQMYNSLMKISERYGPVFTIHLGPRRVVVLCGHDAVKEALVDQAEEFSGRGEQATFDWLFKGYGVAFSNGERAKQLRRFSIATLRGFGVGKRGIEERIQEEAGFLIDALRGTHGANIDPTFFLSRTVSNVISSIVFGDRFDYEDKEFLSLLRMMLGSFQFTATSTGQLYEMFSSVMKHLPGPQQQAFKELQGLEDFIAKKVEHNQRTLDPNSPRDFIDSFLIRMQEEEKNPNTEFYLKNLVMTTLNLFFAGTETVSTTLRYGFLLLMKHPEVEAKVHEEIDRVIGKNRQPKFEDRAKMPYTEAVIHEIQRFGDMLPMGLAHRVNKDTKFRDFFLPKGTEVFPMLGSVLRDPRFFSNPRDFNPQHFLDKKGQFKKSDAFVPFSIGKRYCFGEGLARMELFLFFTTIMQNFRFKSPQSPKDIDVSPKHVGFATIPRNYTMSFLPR
# measurement-description: Spectral binding titration with purified recombinant P450 2A13
Friendly reminder that pKd comes from taking -log10 of the concentration in mol/L.

The molecule N#C[Se]Cc1ccccc1 [BSC, benzyl selenocyanate] , tested on P450 2A13 (Homo sapiens, UniProt Q16696), showed pKd of 6.70

The molecule N#C[Se]Cc1ccc(C[Se]C#N)cc1 [p-XSC, 1,4-phenylenebis(methylene)selenocyanate] , tested on P450 2A13 (Homo sapiens, UniProt Q16696), showed pKd of 5.82

The molecule N#C[Se]Cc1cccc(C[Se]C#N)c1 [m-XSC, 1,3-phenylenebis(methylene)selenocyanate] , tested on P450 2A13 (Homo sapiens, UniProt Q16696), showed pKd of 6.70

Now, please, on to the next molecule.
The molecule N#C[Se]Cc1ccccc1C[Se]C#N [o-XSC, 1,2-phenylenebis(methylene)selenocyanate] , tested on P450 2A13 (Homo sapiens, UniProt Q16696), showed pKd of 6.12

----------
# measurement-target: P450 2A13 (Homo sapiens)
# measurement-description: Inhibition of P450 2A13-dependent coumarin 7-hydroxylation
# Assay type: biochemical
measurement-name: pIC50
Friendly reminder that pIC50 comes from taking -log10 of the concentration in mol/L.

Some solved cases for reference:
The compound N#C[Se]Cc1ccccc1 [BSC, benzyl selenocyanate] , tested on P450 2A13 (Homo sapiens), showed pIC50 of 5.92

The compound N#C[Se]Cc1ccc(C[Se]C#N)cc1 [p-XSC, 1,4-phenylenebis(methylene)selenocyanate] , tested on P450 2A13 (Homo sapiens), showed pIC50 of 5.85

The compound N#C[Se]Cc1cccc(C[Se]C#N)c1 [m-XSC, 1,3-phenylenebis(methylene)selenocyanate] , tested on P450 2A13 (Homo sapiens), showed pIC50 of 6.66

Now, please, on to the next compound.
The compound N#C[Se]Cc1ccccc1C[Se]C#N [o-XSC, 1,2-phenylenebis(methylene)selenocyanate] , tested on P450 2A13 (Homo sapiens), showed pIC50 of 5.92

----------
# measurement-target: UniProt P04799
# Sequence (P04799 1-513): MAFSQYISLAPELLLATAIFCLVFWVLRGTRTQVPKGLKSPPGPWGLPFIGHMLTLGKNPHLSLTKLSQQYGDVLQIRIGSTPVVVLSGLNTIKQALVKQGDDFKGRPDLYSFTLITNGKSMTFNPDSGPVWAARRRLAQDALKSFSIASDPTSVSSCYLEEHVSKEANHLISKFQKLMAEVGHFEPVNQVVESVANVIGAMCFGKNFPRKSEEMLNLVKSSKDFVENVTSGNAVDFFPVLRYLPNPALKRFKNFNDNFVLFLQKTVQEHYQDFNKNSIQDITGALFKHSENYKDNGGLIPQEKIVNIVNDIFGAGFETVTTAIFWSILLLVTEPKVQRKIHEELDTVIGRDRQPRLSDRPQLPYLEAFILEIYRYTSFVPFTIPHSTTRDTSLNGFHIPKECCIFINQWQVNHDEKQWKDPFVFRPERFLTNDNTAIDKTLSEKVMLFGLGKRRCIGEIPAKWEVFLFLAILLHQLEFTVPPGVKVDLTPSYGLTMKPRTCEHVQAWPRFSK
measurement-name: Kd (µM)
Kindly provide the numeric value in µM only, without the unit symbol.

Recorded Kd (compound N#C[Se]Cc1ccccc1 [BSC, benzyl selenocyanate] ): 16
